- tested system: fully phosphorylated, mouse aERK2 enzyme (Mus musculus (Mouse), UniProt P63085)
- Sequence (P63085 whole entry): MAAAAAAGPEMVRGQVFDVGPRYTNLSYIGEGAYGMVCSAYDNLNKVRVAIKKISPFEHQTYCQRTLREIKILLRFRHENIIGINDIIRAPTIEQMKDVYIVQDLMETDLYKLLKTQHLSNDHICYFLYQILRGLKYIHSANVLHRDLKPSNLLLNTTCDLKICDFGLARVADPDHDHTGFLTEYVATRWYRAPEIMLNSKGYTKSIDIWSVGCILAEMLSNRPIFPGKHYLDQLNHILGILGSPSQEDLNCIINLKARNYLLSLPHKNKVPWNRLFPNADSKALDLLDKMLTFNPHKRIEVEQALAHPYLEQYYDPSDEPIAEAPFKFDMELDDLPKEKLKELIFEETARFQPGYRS
- procedure details: Active ERK2 (aERK) IMAP-FP assay, condition 2
- Type: biochemical
- run parameters: active ERK2; read-out: aErk2 Ic50
observed property: IC50 (nM)

These solved cases illustrate the format of a correct answer.
input smiles | tested system | IC50 (nM)
COc1cccc(F)c1CN1C[C@H](NC(=O)c2ccc3[nH]nc(-c4ccnc(C)c4)c3c2)CC[C@H]1C(=O)N1CCCCO1 | fully phosphorylated, mouse aERK2 enzyme (Mus musculus (Mouse), UniProt P63085) | 9.6
CCN(CC)C(=O)[C@@H]1CC[C@@H](NC(=O)c2ccc3[nH]nc(-c4ccnc(C)c4)c3c2)CN1Cc1c(F)cccc1OC | fully phosphorylated, mouse aERK2 enzyme (Mus musculus (Mouse), UniProt P63085) | 16.2
COc1cccc(F)c1CN1C[C@H](NC(=O)c2ccc3[nH]nc(-c4ccncc4)c3c2)CC[C@H]1C(=O)N1CCCC1 | fully phosphorylated, mouse aERK2 enzyme (Mus musculus (Mouse), UniProt P63085) | 35.5

(I) COC(=O)N1CCN(C(=O)[C@@H]2CC[C@@H](NC(=O)c3ccc4[nH]nc(-c5ccnc(C)c5)c4c3)CN2Cc2c(F)cccc2OC)CC1
(II) COc1cccc(F)c1CN1C[C@H](NC(=O)c2ccc3[nH]nc(-c4ccc5nc(C)sc5c4)c3c2)CC[C@H]1C(=O)N(C)C
(III) COc1cccc(F)c1CN1C[C@H](NC(=O)c2ccc3[nH]nc(-c4ccnc(C)c4)c3c2)CC[C@H]1C(=O)N1CCN(C)CC1
(IV) COc1cccc(F)c1CN1C[C@H](NC(=O)c2ccc3[nH]nc(-c4ccnc(C)c4)c3c2)CC[C@H]1C(=O)N1CCN(C(=O)OC(C)(C)C)CC1
(V) CNC(=S)NNC(=O)[C@@H]1CC[C@@H](NC(=O)c2ccc3[nH]nc(-c4ccnc(C)c4)c3c2)CN1Cc1c(F)cccc1OC
Which order do these items take when sorted by rising IC50? List them. List labels; respect the requested ordering.
V, IV, I, III, II
(V: 1 nM, IV: 7 nM, I: 17.9 nM, III: 32.5 nM, II: 48 nM)

----------
- tested system: fully phosphorylated, active Mouse ERK2 protein (Mus musculus (Mouse), UniProt P63085)
- Sequence (P63085 whole entry): as above
observed property: IC50 (nM)

These solved cases illustrate the format of a correct answer.
compound | IC50 (nM)
CN1C[C@H](Cc2c(F)cccc2F)C[C@H](NC(=O)c2ccc3[nH]nc(-c4ccn5ccnc5c4)c3c2)C1 | 1.59
O=C(NC1CCCN(Cc2ccccc2)C1)c1ccc2[nH]nc(-c3ccncc3)c2c1 (stereo not drawn) | 32.5
O=C(N[C@@H]1CCCN(Cc2ccccc2F)C1)c1ccc2[nH]nc(-c3ccncc3)c2c1 | 5.5

(I) COc1cccc(F)c1CN1C[C@H](C)C[C@@H](NC(=O)c2ccc3[nH]nc(-c4ccc5nn(C)cc5c4)c3c2)C1
(II) O=C(NC1CN(C(=O)OCc2ccccc2)CC(F)(F)C1)c1ccc2[nH]nc(-c3ccncc3)c2c1 (stereo not drawn)
Problem: Given the entries I and II , determine which has the lower reported IC50. Your answer should be the label attached to the chosen record.
II
(II: 105 nM, I: 217 nM)

----------
- tested system: fully phosphorylated, active Mouse ERK2 protein (Mus musculus (Mouse))
- procedure details: Active ERK2 (aERK) IMAP assay, condition 1
- Type: biochemical
- run parameters: aERK assay condition 1, 30 μM ATP
observed property: IC50 (nM)

These solved cases illustrate the format of a correct answer.
compound | IC50, nM
CN(C)C(=O)[C@@H]1CC[C@@H](NC(=O)c2ccc3[nH]nc(-c4ccncc4)c3c2)CN1Cc1ccccc1 | 51.3
O=C(NC1CN(Cc2ccccc2F)CC(F)(F)C1)c1ccc2[nH]nc(-c3ccncc3)c2c1 (centres unmarked) | 127
COc1cccc(F)c1CN1C[C@H](NC(=O)c2ccc3[nH]nc(-c4ccncc4)c3c2)CCC1CO (some centres unmarked) | 3.58
COc1cccc(F)c1CN1C[C@H](NC(=O)c2ccc3[nH]nc(-c4ccc5nccn5c4)c3c2)C[C@H](C(F)(F)F)C1 [drawing 377] | 4.46
Cc1cc(-c2n[nH]c3ccc(C(=O)N[C@@H]4CCCN(C(C)c5ccccc5)C4)cc23)ccn1 (some centres unmarked) | 128

(P) COc1cccc(F)c1CN1CCC[C@@H](NC(=O)c2ccc3[nH]nc(-c4ccc5sccc5c4)c3c2)C1
(Q) O=C(N[C@@H]1CNCC[C@H]1c1ccccc1)c1ccc2[nH]nc(-c3ccc4[nH]c(=O)[nH]c4c3)c2c1
Compare P and Q by numeric IC50 and name the larger one. Your answer should be the label attached to the chosen record.
P
